Each recorded value in this set is attributed to the OligoGym collection.

What target mRNA inhibition was measured for each of the following?
- measuredTarget: HTRA1
- experimentalSetup: ASO, U251, 5 µM
After the bases stand the sugars from the 5' end (letter, count) and the backbone: PS all phosphorothioate, else s phosphorothioate and o phosphodiester by linkage. Methylation of C is not given here. l = locked nucleic acid (LNA); d = 2'-deoxy (DNA)
Kindly report the value followed by its unit.

residueSequence	measuredTarget	observedMeasurement
AAGTACTTTAATAGCTCAA (sugars l4 d11 l4, PS)	HTRA1	69%
AATGTGTAAGAAGTACTT (sugars l4 d10 l4, PS)	HTRA1	68%

Note: attention shifts to another entry.
Record lookup: for HTRA1, what target mRNA inhibition belongs to GATGATGACTCAGTTAAAG (sugars l4 d12 l3, PS) ?
72%
